Value source: patent US20110318339A1

# subject.of.test: T1, recombinant human DLL4 (Cat# 1506-D4/CF, R&D Systems) (human, UniProt Q9NR61 27-529)
# T1 construct: Bought protein; also called hDLL4; rHuman DLL4
# assay.name: ELISA, DLL4 coated, Fab 12.5 nM
Entries and their ELISA absorbance at 450 nm values follow.

[
  {
    "binder": "Fab VH5-51_IGHD5-18*01>3_IGHJ4*01 G100K/G104T G24T/S28R/G35V & V3-4_IGLJ1*01 V91L/S96P S52M (Fab, V domains shown, Fab made in E. coli: VH on CH1 with His6 and Flag tags (Plasmid A), VL on lambda CL (Plasmid E); also called H: KT TRV & L: LP S52M) VH: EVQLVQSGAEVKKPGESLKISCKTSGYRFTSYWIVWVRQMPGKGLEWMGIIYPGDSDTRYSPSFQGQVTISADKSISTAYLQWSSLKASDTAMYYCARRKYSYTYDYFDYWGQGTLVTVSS VL: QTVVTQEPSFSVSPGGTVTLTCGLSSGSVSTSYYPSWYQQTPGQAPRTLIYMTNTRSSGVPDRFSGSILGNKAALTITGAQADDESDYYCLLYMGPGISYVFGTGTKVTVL",
    "ELISA absorbance at 450 nm": "0.41 A450"
  },
  {
    "binder": "Fab VH5-51_IGHD5-18*01>3_IGHJ4*01 G100K/G104T G24T/S28R/G35V & V3-4_IGLJ1*01 V91L/S96P S52Y (Fab, V domains shown, Fab made in E. coli: VH on CH1 with His6 and Flag tags (Plasmid A), VL on lambda CL (Plasmid E); also called H: KT TRV & L: LP S52Y) VH: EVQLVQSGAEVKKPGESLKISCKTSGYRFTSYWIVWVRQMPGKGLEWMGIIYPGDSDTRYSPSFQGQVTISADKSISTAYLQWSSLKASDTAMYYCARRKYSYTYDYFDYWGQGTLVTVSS VL: QTVVTQEPSFSVSPGGTVTLTCGLSSGSVSTSYYPSWYQQTPGQAPRTLIYYTNTRSSGVPDRFSGSILGNKAALTITGAQADDESDYYCLLYMGPGISYVFGTGTKVTVL",
    "ELISA absorbance at 450 nm": "0.41 A450"
  },
  {
    "binder": "Fab VH5-51_IGHD5-18*01>3_IGHJ4*01 G100K/G104T G24T/S28R/G35V & V3-4_IGLJ1*01 V91L/S96P S52F (Fab, V domains shown, Fab made in E. coli: VH on CH1 with His6 and Flag tags (Plasmid A), VL on lambda CL (Plasmid E); also called H: KT TRV & L: LP S52F) VH: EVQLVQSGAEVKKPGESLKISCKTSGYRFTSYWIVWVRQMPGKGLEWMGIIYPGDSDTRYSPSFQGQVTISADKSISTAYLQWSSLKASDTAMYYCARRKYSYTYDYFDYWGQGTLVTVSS VL: QTVVTQEPSFSVSPGGTVTLTCGLSSGSVSTSYYPSWYQQTPGQAPRTLIYFTNTRSSGVPDRFSGSILGNKAALTITGAQADDESDYYCLLYMGPGISYVFGTGTKVTVL",
    "ELISA absorbance at 450 nm": "0.42 A450"
  },
  {
    "binder": "Fab VH5-51_IGHD5-18*01>3_IGHJ4*01 G100K/G104T G24T/S28R/G35V & V3-4_IGLJ1*01 V91L/S96P S52I (Fab, V domains shown, Fab made in E. coli: VH on CH1 with His6 and Flag tags (Plasmid A), VL on lambda CL (Plasmid E); also called H: KT TRV & L: LP S52I) VH: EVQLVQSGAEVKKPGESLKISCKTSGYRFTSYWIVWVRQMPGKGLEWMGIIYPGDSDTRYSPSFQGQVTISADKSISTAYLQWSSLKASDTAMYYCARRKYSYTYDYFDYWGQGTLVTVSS VL: QTVVTQEPSFSVSPGGTVTLTCGLSSGSVSTSYYPSWYQQTPGQAPRTLIYITNTRSSGVPDRFSGSILGNKAALTITGAQADDESDYYCLLYMGPGISYVFGTGTKVTVL",
    "ELISA absorbance at 450 nm": "0.4 A450"
  },
  {
    "binder": "Fab VH5-51_IGHD5-18*01>3_IGHJ4*01 G100K/G104T G24T/S28R/G35V & V3-4_IGLJ1*01 V91L/S96P S52T (Fab, V domains shown, Fab made in E. coli: VH on CH1 with His6 and Flag tags (Plasmid A), VL on lambda CL (Plasmid E); also called H: KT TRV & L: LP S52T) VH: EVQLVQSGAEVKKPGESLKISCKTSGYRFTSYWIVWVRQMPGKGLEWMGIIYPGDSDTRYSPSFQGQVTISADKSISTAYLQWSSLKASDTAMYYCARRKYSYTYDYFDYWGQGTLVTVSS VL: QTVVTQEPSFSVSPGGTVTLTCGLSSGSVSTSYYPSWYQQTPGQAPRTLIYTTNTRSSGVPDRFSGSILGNKAALTITGAQADDESDYYCLLYMGPGISYVFGTGTKVTVL",
    "ELISA absorbance at 450 nm": "0.41 A450"
  }
]
